System: NCI-H2342
METHOD NOTES: relative viability (nuclei count vs DMSO), 5 days (fraction); higher = more cells survive
CONDITION LABEL: first compound 0.1265 µM
RECORDED METRIC: relative viability

molecule="Clc1ccc(Nc2nnc(Cc3ccncc3)c3ccccc23)cc1 [Vatalanib] + COc1cccc2cc(-c3nc([C@H]4CC[C@H](C(=O)O)CC4)n4ncnc(N)c34)[nH]c12 [OSI-027] (partner 0.5 µM)" reported_value=0.556
molecule="C[C@@H]1CN(CC(=O)Nc2ccc3c(c2)Cc2cccc(-c4cc(=O)cc(N5CCOCC5)o4)c2S3)C[C@H](C)O1 + Cc1cc(Nc2cc(N3CCN(C)CC3)nc(Sc3ccc(NC(=O)C4CC4)cc3)n2)n[nH]1 [Tozasertib] (partner 0.1 µM)" reported_value=0.494

----------
Tested on: NCI-H650
METHOD NOTES: relative viability (nuclei count vs DMSO), 5 days (fraction); higher = more cells survive
CONDITION LABEL: first compound 0.8 µM
Measured relative viability accompanies every entry in the list below.
RECORDED METRIC: relative viability

compound="CCCCCCCCCCCC1=C(O)C(=O)C=C(O)C1=O [Embelin] + CC(=O)Nc1cccc(-n2c(=O)n(C3CC3)c(=O)c3c(Nc4ccc(I)cc4F)n(C)c(=O)c(C)c32)c1 [Trametinib] (partner 0.02 µM)" tested_on=NCI-H650 recorded_metric="relative viability" reported_value=1.47
compound="CCCCCCCCCCCC1=C(O)C(=O)C=C(O)C1=O [Embelin] + O=C(c1cc(Cc2n[nH]c(=O)c3ccccc23)ccc1F)N1CCN(C(=O)C2CC2)CC1 [Olaparib] (partner 8 µM)" tested_on=NCI-H650 recorded_metric="relative viability" reported_value=0.407
compound="CCCCCCCCCCCC1=C(O)C(=O)C=C(O)C1=O [Embelin] + CC(=O)c1c(C)c2cnc(Nc3ccc(N4CCNCC4)cn3)nc2n(C2CCCC2)c1=O [Palbociclib] (partner 0.5 µM)" tested_on=NCI-H650 recorded_metric="relative viability" reported_value=0.407
compound="CCCCCCCCCCCC1=C(O)C(=O)C=C(O)C1=O [Embelin] + COc1cc2c(Oc3ccc(NC(=O)C4(C(=O)Nc5ccc(F)cc5)CC4)cc3F)ccnc2cc1OCCCN1CCOCC1 [Foretinib] (partner 0.25 µM)" tested_on=NCI-H650 recorded_metric="relative viability" reported_value=1.21
compound="CCCCCCCCCCCC1=C(O)C(=O)C=C(O)C1=O [Embelin] + COc1cccc2cc(-c3nc([C@H]4CC[C@H](C(=O)O)CC4)n4ncnc(N)c34)[nH]c12 [OSI-027] (partner 0.5 µM)" tested_on=NCI-H650 recorded_metric="relative viability" reported_value=0.623
compound="CCCCCCCCCCCC1=C(O)C(=O)C=C(O)C1=O [Embelin] + N=C(N)NC(=N)NCCc1ccccc1 [Phenformin] (partner 250 µM)" tested_on=NCI-H650 recorded_metric="relative viability" reported_value=0.524

----------
Measured relative viability accompanies every entry in the list below.
Test system: NCI-H2085
METHOD NOTES: relative viability (nuclei count vs DMSO), 5 days (fraction); higher = more cells survive
CONDITION LABEL: first compound 2.53 µM
RECORDED METRIC: relative viability

compound="CCCCCCCCCCCC1=C(O)C(=O)C=C(O)C1=O [Embelin] + CS(=O)(=O)N1CCN(Cc2cc3nc(-c4cccc5[nH]ncc45)nc(N4CCOCC4)c3s2)CC1 [Pictilisib] (partner 1 µM)" reported_value=0.44
compound="CCCCCCCCCCCC1=C(O)C(=O)C=C(O)C1=O [Embelin] + Cc1nc(NC(=O)N2CCC[C@H]2C(N)=O)sc1-c1ccnc(C(C)(C)C(F)(F)F)c1 [Alpelisib] (partner 2 µM)" reported_value=1.11
compound="CCCCCCCCCCCC1=C(O)C(=O)C=C(O)C1=O [Embelin] + O=C(CCCCCCC(=O)Nc1ccccc1)NO [Vorinostat] (partner 1 µM)" reported_value=0.807
compound="CCCCCCCCCCCC1=C(O)C(=O)C=C(O)C1=O [Embelin] + Nc1ncn([C@H]2C[C@H](O)[C@@H](CO)O2)c(=O)n1 [Decitabine] (partner 2 µM)" reported_value=0.531
compound="CCCCCCCCCCCC1=C(O)C(=O)C=C(O)C1=O [Embelin] + CC(=O)Nc1cccc(-n2c(=O)n(C3CC3)c(=O)c3c(Nc4ccc(I)cc4F)n(C)c(=O)c(C)c32)c1 [Trametinib] (partner 0.02 µM)" reported_value=0.532
